Listed here: items and their measured melting point.

As a guide, the following entries are already answered.
Could you please provide reported melting point for C[C@@H]1Cn2nc(COc3ccccc3)cc2C(=O)N1c1ccc(F)cn1 [Example 141] ? Thanks!
71.9 °C

State, in one line, measured melting point of Cc1cc(N2C(=O)c3cc(COc4ccccc4)nn3C[C@H]2C)ccc1F [Example 144]
94.6 °C

Supply measured melting point of Cc1ccc(N2CCn3nc(COc4ccccc4)cc3C2=O)nn1 [Example 84] in your reply.
166.7 °C

# return recorded melting point for entry Cc1ccnc(N2CCn3nc(COc4ccccc4)cc3C2=O)c1 [Example 17]
131.3 °C

New cases:
Using the record for CN(C)c1cccc(N2CCn3nc(COc4ccccc4)cc3C2=O)n1 [Example 286] , state its measured melting point.
143.7 °C

Specify melting point for COc1nc(N2CCn3nc(COc4ccccc4)cc3C2=O)ccc1C [Example 108] and stop.
145.3 °C

Quote melting point reported for COc1cc(N2C(=O)c3cc(COc4ccccc4)nn3C[C@H]2C)ccc1F [Example 143] please.
135.8 °C

Name the recorded melting point of the item COc1cc(C)cc(N2CCn3nc(COc4ccccc4)cc3C2=O)n1 [Example 104] in your answer.
140.9 °C

Give me measured melting point, please, for this compound: Cc1cnc(N2CCn3nc(COc4ccccc4)cc3C2=O)cn1 [Example 100]
235.5 °C

Complete the entry with melting point for Cc1cc(N2C(=O)c3cc(COc4ccccc4)nn3C[C@H]2C)ncc1F [Example 155]
99.3 °C

Supply melting point value. Item: CCOc1cccc(N2CCn3nc(COc4ccccc4)cc3C2=O)c1 [Example 59]
115.8 °C

Provide only the value of recorded melting point for Cc1cccc(N2CCn3nc(COc4ccccn4)cc3C2=O)n1 [Example 206]
109.8 °C

Using the record for COc1nc(N2C(=O)c3cc(COc4ccccc4)nn3C[C@H]2C)ncc1C [Example 156] , state its measured melting point.
> 300 °C

Quick one: give measured melting point for O=C1c2cc(COc3ccccc3)nn2CCN1c1cnccn1 [Example 87]
239.3 °C

* * *

- TARGET_SYSTEM: human mGluR5a receptor (Homo sapiens, UniProt P41594)
- Construct: cDNA subcloned into pcDNA3.1(-)
- Sequence (P41594 21-1180 isoform P41594-2 limits assumed): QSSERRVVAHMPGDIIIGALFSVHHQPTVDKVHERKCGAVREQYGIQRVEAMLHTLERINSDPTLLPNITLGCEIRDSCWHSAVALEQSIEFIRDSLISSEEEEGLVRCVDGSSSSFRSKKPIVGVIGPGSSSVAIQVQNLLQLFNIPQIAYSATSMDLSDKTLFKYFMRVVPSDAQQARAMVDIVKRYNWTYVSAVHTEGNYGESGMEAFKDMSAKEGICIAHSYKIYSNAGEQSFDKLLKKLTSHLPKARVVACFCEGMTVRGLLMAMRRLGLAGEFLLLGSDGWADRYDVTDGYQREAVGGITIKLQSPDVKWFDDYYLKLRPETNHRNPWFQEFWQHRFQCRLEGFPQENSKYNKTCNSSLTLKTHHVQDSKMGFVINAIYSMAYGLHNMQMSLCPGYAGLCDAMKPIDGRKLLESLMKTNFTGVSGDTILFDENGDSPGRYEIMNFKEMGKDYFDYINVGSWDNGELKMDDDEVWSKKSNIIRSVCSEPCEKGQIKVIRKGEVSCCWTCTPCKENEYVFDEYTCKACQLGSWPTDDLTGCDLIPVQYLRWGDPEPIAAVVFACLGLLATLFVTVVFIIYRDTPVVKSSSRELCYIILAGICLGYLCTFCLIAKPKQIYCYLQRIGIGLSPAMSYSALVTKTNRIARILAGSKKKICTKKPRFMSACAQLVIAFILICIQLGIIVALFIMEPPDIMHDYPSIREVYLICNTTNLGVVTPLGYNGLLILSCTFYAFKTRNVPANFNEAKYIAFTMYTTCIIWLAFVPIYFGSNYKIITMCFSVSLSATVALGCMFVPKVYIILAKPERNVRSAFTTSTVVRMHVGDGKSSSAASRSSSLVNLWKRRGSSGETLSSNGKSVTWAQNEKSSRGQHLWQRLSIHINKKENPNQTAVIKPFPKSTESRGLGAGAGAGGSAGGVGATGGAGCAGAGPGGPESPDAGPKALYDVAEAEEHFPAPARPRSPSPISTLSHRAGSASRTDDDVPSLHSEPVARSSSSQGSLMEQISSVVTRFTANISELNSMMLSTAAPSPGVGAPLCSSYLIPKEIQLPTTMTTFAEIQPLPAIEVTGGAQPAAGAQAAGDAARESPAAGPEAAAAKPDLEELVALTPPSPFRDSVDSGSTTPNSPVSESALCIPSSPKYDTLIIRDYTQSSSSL
- PROTOCOL_TEXT: Cell-based functional Ca2+ mobilization assay (FDSS), potentiation of glutamate EC20 response
- DETAILS: HEK cells transfected with human mGluR5 (H10H or H12H); in presence of EC20 glutamate; read-out: EC50
READOUT_KIND: pEC50
pEC50 is a log-scale quantity: -log10 of the concentration expressed in molar.

Here are 3 compounds together with their reported answers.
Give the value of pEC50 reported for the following: "O=C1c2cc(COc3ccccc3)nn2CCN1c1nc2ccccc2o1"
7.24

Answer with the recorded pEC50 for the compound listed here: "Cc1cc(OCc2cc3n(n2)CCN(c2ccc(F)cc2)C3=O)ncc1F"
5.77

Provide pEC50 value for the following compound: "O=C1c2cc(COc3ccccc3)nn2CCN1c1cccc(CF)n1"
7.18

Continuing:
Return reported pEC50. Input compound: "O=C1c2cc(COc3ccccc3)nn2CCN1c1cccc(N2CCCC2)n1"
6.58

Indicate its recorded pEC50; the compound in question is Cc1nc(N2CC(C)n3nc(COc4ccccc4)cc3C2=O)ccc1F (centres unmarked) [Example 134]
7.20

Identify measured pEC50 associated with "Cc1cccc(N2CCn3nc(COc4ccccc4)cc3C2=O)c1"
7.09

Report pEC50, nothing else, for this compound: "Cc1cnc(C)c(N2CCn3nc(COc4ccccc4)cc3C2=O)n1"
6.12

Return value of pEC50 for input "O=C1c2cc(COc3ccccc3)nn2CCN1c1ccc(F)cc1" , no commentary.
7.14

Identify the reported pEC50 for the following entry. "C[C@@H]1Cn2nc(COc3cccc(C#N)c3)cc2C(=O)N1c1ccc(F)cc1"
6.67

Tell us which pEC50 value is on record for "COc1nc(C)cc(N2CCn3nc(COc4ccccc4)cc3C2=O)n1"
6.13
